tested on: K98450-129-R-PDC complex spheroid growth, percent test/control; assay: Anticancer human tumor K98450-129-R-PDC patient-derived colon adenocarcinoma cell line growth inhibition [RAS]; conditions: second compound 0.3 µM; first compound 0.316 µM; active means viability on the fitted dose curve at most 10% of control; inactive means the rest;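 further: luminescence used as a proxy for viable cell amount; spheroids exposed to agents for seven days before the viability readout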
Return exactly one item of Y for active, N for inactive

CC(=O)OC12COC1CC(O)C1(C)C(=O)C(O)C3=C(C)C(OC(=O)C(O)C(NC(=O)OC(C)(C)C)c4ccccc4)CC(O)(C(OC(=O)c4ccccc4)C21)C3(C)C (stereo not given) + CCn1c(-c2cccnc2C(C)OC)c2c3cc(ccc31)N1CCOC(CC(NC(=O)C(C(C)C)N(C)C(=O)C3(F)CCN(C(=O)C#CC(C)(C)N(C)C)CC3)C(=O)N3CCCC(N3)C(=O)OCC(C)(C)C2)C1 = N
CC(Nc1ccc2c(c1)OCCn1cc(N3C(=O)OCC3C(F)F)nc1-2)C(N)=O (stereo not given) + CCn1c(-c2cc(N3CCN(C)CC3)cnc2C(C)OC)c2c3cc(ccc31)-c1csc(n1)CC(NC(=O)C1CC1C)C(=O)N1CCCC(N1)C(=O)OCC(C)(C)C2 = Y
Nc1ccn(C2OC(CO)C(O)C2(F)F)c(=O)n1 (stereo not given) + CCn1c(-c2cc(N3CCN(C)CC3)cnc2C(C)OC)c2c3cc(ccc31)-c1csc(n1)CC(NC(=O)C1CC1C)C(=O)N1CCCC(N1)C(=O)OCC(C)(C)C2 = N
CCC(CC)c1cc(NC2CCC(N)C2)n2nccc2n1 (stereo not given) + CCn1c(-c2cc(N3CCN(C)CC3)cnc2C(C)OC)c2c3cc(ccc31)-c1csc(n1)CC(NC(=O)C1CC1C)C(=O)N1CCCC(N1)C(=O)OCC(C)(C)C2 = N

Continue with the next molecule.
Answer briefly: the call reported for C=CC(=O)N1CCN(c2nc(OCC3CCCN3C)nc3c(F)c(-c4nc(N)cc(C)c4C(F)(F)F)c(Cl)cc23)C(C)C1 (stereo not given) + CCn1c(-c2cc(N3CCN(C)CC3)cnc2C(C)OC)c2c3cc(ccc31)-c1csc(n1)CC(NC(=O)C1CC1C)C(=O)N1CCCC(N1)C(=O)OCC(C)(C)C2 in this assay.
N
